Target: HLA B*5101 (Homo sapiens, UniProt P01889, A329T/A93T/A95T/C349S/D138N/D201E/D98Y/E187L/E204Q/E69T/G107R/I218V/K202T/L105A/L119W/N104I/Q94N/R106L/R155S/R180L/S101N/S121T/S35A/S48A/V306I/V36M/Y195H/Y91F)
Assay type: binding
Class (by Normalized average relative binding affinity (ARB), HLA B*5101) -- low bracket: < 0.05; middle bracket: ≥ 0.05 and < 0.2; high bracket: ≥ 0.2

Sequence Chain: TXXXXXXXX [3064.0017]
Class Label: middle bracket
//
Sequence Chain: XLXXXXXXX [3064.0030]
Class Label: low bracket
//
Sequence Chain: XXEXXXXXX [3064.0044]
Class Label: middle bracket
//
Sequence Chain: RXXXXXXXX [3064.0015]
Class Label: low bracket
//
Sequence Chain: XXSXXXXXX [3064.0056]
Class Label: middle bracket
//
Sequence Chain: XNXXXXXXX [3064.0032]
Class Label: low bracket
//
Sequence Chain: XSXXXXXXX [3064.0036]
Class Label: middle bracket
//
Sequence Chain: XXLXXXXXX [3064.0050]
Class Label: high bracket
//
Sequence Chain: XXXDXXXXX [3064.0063]
Class Label: high bracket
//
Sequence Chain: XRXXXXXXX [3064.0035]
Class Label: low bracket
//
Sequence Chain: DXXXXXXXX [3064.0003]
Class Label: high bracket
//
Sequence Chain: XXMXXXXXX [3064.0051]
Class Label: high bracket
//
Sequence Chain: NXXXXXXXX [3064.0012]
Class Label: middle bracket
//
Sequence Chain: KXXXXXXXX [3064.0009]
Class Label: middle bracket
//
Sequence Chain: XXWXXXXXX [3064.0059]
Class Label: high bracket
//
Sequence Chain: XHXXXXXXX [3064.0027]
Class Label: low bracket
//
Sequence Chain: XXXCXXXXX [3064.0062]
Class Label: high bracket
//
Sequence Chain: XXDXXXXXX [3064.0043]
Class Label: middle bracket
//
Sequence Chain: HXXXXXXXX [3064.0007]
Class Label: middle bracket
//
Sequence Chain: QXXXXXXXX [3064.0014]
Class Label: low bracket
//
Sequence Chain: XXNXXXXXX [3064.0052]
Class Label: high bracket
//
Sequence Chain: XCXXXXXXX [3064.0022]
Class Label: middle bracket
//
Sequence Chain: XPXXXXXXX [3064.0033]
Class Label: high bracket
//
Sequence Chain: EXXXXXXXX [3064.0004]
Class Label: middle bracket
//
Sequence Chain: XXXAXXXXX [3064.0061]
Class Label: high bracket
//
Sequence Chain: YXXXXXXXX [3064.0020]
Class Label: high bracket
//
Sequence Chain: XKXXXXXXX [3064.0029]
Class Label: low bracket
//
Sequence Chain: IXXXXXXXX [3064.0008]
Class Label: high bracket
//
Sequence Chain: XEXXXXXXX [3064.0024]
Class Label: low bracket
//
Sequence Chain: XXGXXXXXX [3064.0046]
Class Label: middle bracket
